# Tested on: HEK293
# experiment notes: Cytotoxicity against HEK293 cells assessed as inhibition of cell growth after 48 hrs by MTT assay
# Assay type: cell-based
# condition label: Homo sapiens, HEK293, 48 h
reported metric: IC50

• COc1ccccc1NC(=O)CSc1nnc(-c2cc(OC)c(OC)c(OC)c2)n1N = > 100 µM
• CCc1ccc(NC(=O)CSc2nnc(-c3cc(OC)c(OC)c(OC)c3)n2N)cc1 = > 100 µM
• COc1cc(-c2nnc(SCC(=O)Nc3ccc(C)cc3F)n2N)cc(OC)c1OC = 61.1 µM

---

# Test system: HeLa
# experiment notes: Cytotoxicity against human HeLa cells assessed as inhibition of cell growth after 48 hrs by MTT assay
# Type: functional, cell-based
pIC50: −log10 of the molar value.
reported metric: pIC50

* COc1cc(-c2nnc(SCC(=O)NC3CCCCC3)n2N)cc(OC)c1OC | 4.22
* COc1cc(-c2nnc(SCC(=O)Nc3ccc(C)c(C)c3)n2N)cc(OC)c1OC | 6.06
* COc1cc(-c2nnc(SCC(=O)Nc3c(C)cc(C)cc3C)n2N)cc(OC)c1OC | 4.08
* CCc1ccc(NC(=O)CSc2nnc(-c3cc(OC)c(OC)c(OC)c3)[nH]2)cc1 | 4.47
* COc1ccccc1NC(=O)CSc1nnc(-c2cc(OC)c(OC)c(OC)c2)n1N | 6.80
* COc1cc(-c2nnc(SCC(=O)Nc3ccc(C)cc3)n2N)cc(OC)c1OC | 5.79
* COc1cc(-c2nnc(SCC(=O)N(C)c3ccc(C)cc3)n2N)cc(OC)c1OC | 4.67

---

# Tested on: HeLa
# experiment notes: Cytotoxicity against human HeLa cells assessed as inhibition of cell growth after 48 hrs by MTT assay
# Format: functional, cell-based
Lab note - cut at 30 µM for IC50: 1 if strictly below, 0 if not.

• COc1cc(-c2nnc(SCC(=O)Oc3ccc(C)cc3)n2N)cc(OC)c1OC = 0
• CCc1ccc(NC(=O)CSc2nnc(-c3cc(OC)c(OC)c(OC)c3)n2N)cc1 = 1
• COc1cc(-c2nnc(SCC(=O)c3ccc(C)cc3)n2-n2cccc2)cc(OC)c1OC = 0
• COc1ccc(NC(=O)CSc2nnc(-c3cc(OC)c(OC)c(OC)c3)[nH]2)cc1 = 0
• COc1cc(-c2nnc(SCC(=O)Nc3ccc(N4CCCCC4)cc3)n2N)cc(OC)c1OC = 0
• COc1ccc(NC(=O)CSc2nnc(-c3cc(OC)c(OC)c(OC)c3)n2N)cc1O = 0
• COc1cc(-c2nnc(SCC(=O)Nc3ccc(C)cc3)n2-n2cccc2)cc(OC)c1OC = 0
• COc1ccc(/C=C\c2cc(OC)c(OC)c(OC)c2)cc1O [COMBRETASTATIN A4] = 1
• COc1cc(-c2nnc(SCC(=O)Nc3ccc(C(C)(C)C)cc3)n2N)cc(OC)c1OC = 0

---

# tgt: Tubulin
# experiment notes: Inhibition of tubulin (unknown origin) polymerization
pIC50: −log10 of the molar value.
reported metric: pIC50

- COc1cc(-c2nnc(SCC(=O)Nc3ccc(C)cc3)n2N)cc(OC)c1OC: 5.23

---

# IC50 listing for each entry below
# Test system: HeLa
# experiment notes: Cytotoxicity against human HeLa cells assessed as inhibition of cell growth after 48 hrs by MTT assay
# Assay type: functional, cell-based
reported metric: IC50

- CCCc1ccc(NC(=O)CSc2nnc(-c3cc(OC)c(OC)c(OC)c3)[nH]2)cc1: > 100 µM
- COc1cccc(NC(=O)CSc2nnc(-c3cc(OC)c(OC)c(OC)c3)[nH]2)c1: > 100 µM
- COc1cc(-c2nnc(SCC(=O)Nc3ccc(C)cc3)[nH]2)cc(OC)c1OC: > 100 µM
